Recorded activity change, negative = inhibition, one value per entry.
assay details: AP1 Signaling Pathway (AID 357);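 further: ME-180 reporter cells stimulated with EGF at its EC50 level; on the % scale 0 is the no-effect control and ±100 the full control effect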
run conditions: ME-180 (cervical carcinoma) AP-1-bla reporter, EGF-induced, beta-lactamase ratio, 5 h; at 17.2 µM (top of the series) unless noted
Results filed as inconclusive are left out.
Value expressed in %; do not type the unit.

| compound | activity change, negative = inhibition (%) |
| --- | --- |
| CC(=O)c1ccc(C#CC(C)(C)O)s1 | 6.06 |

Incoming: Give recorded activity change, negative = inhibition. `COc1ccccc1NC(=O)CSc1nnc(-c2ccc(NC(C)=O)cc2)n1C`
Outgoing: -3.49

Incoming: Query activity change, negative = inhibition for `CCOC(=O)CCc1c(C)c(C#N)c2nc3ccccc3n2c1-n1ccnc1C`
Outgoing: -3.36

Incoming: Note down activity change, negative = inhibition recorded for `O=S(=O)(NCc1cccnc1)c1cccc2nsnc12`
Outgoing: 6.05

Incoming: State its activity change, negative = inhibition: `CC(=O)N1CC=C2C(C#N)=C(N)C(C#N)(C#N)[C@H](c3ccoc3)[C@H]2C1`
Outgoing: 8.44

Incoming: Return the recorded activity change, negative = inhibition value; entry: CCCCC1(C(=O)OCC)CC(CN2CCOCC2)OC1=O (stereo not drawn)
Outgoing: 2.64

Incoming: Let me know recorded activity change, negative = inhibition for `COc1ccc(/C=N/n2cncn2)cc1CSc1ccccn1` , thanks.
Outgoing: -9.09
